Assay system UniProt:P07451; read-out recorded as pKi.
Sequence (P07451 whole entry): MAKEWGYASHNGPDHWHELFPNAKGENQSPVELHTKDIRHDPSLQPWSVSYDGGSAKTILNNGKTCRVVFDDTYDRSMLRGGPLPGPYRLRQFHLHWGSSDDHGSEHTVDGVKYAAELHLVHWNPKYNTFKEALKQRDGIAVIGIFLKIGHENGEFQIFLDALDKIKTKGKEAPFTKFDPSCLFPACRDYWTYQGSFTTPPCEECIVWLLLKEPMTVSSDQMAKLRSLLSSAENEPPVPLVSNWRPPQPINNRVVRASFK
pKi: −log10 of the molar value.

NS(=O)(=O)c1ccc(CNC(=O)CCCNC(=O)NCc2ccccc2)cc1; < 4.68
NS(=O)(=O)c1ccc(CCNC(=O)CCCNC(=O)Nc2ccc([N+](=O)[O-])cc2)cc1; < 4.68

Turning to the following molecule.
Value of measured pKi for the entry NS(=O)(=O)c1ccc(CCNC(=O)CCCNC(=O)NCc2ccccc2)cc1 : < 4.68

###

Assay system Carbonic anhydrase 9 (Homo sapiens, UniProt Q16790); read-out recorded as pKi.
The read-out pKi is expressed as -log10 of concentration in moles per litre.

Response field pKi (Carbonic anhydrase 9 (Homo sapiens, UniProt Q16790)) for item NS(=O)(=O)c1ccc(CCNC(=O)CCCNC(=O)NCc2ccccc2)cc1 : 6.97

Response field pKi (Carbonic anhydrase 9 (Homo sapiens, UniProt Q16790)) for item NS(=O)(=O)c1ccc(CCNC(=O)CCCNC(=O)Nc2ccc([N+](=O)[O-])cc2)cc1 : 6.86

Response field pKi (Carbonic anhydrase 9 (Homo sapiens, UniProt Q16790)) for item NS(=O)(=O)c1ccc(CCNC(=O)CCCNC(=O)Nc2ccccc2)cc1 : 7.38

Response field pKi (Carbonic anhydrase 9 (Homo sapiens, UniProt Q16790)) for item NS(=O)(=O)c1ccc(CNC(=O)CCCNC(=O)NCCc2ccccc2)cc1 : 6.52
